Test system: MCF7
ASSAY_NOTES: Tested for cytotoxic activity against MCF7-WT human breast adenocarcinoma cells in MTT assay
Type: functional, cell-based
READOUT: IC50

structure_as_smiles=CC(=O)O[C@@H]1OC(=O)[C@](OC(=O)c2ccccc2)(C(C)=O)[C@@H]1C tested_on=MCF7 data_value="22 µM"
structure_as_smiles=CCO[C@@H]1OC(=O)[C@](C)(C(C)=O)[C@@H]1C tested_on=MCF7 data_value="> 50 µM"
structure_as_smiles=CC(=O)O[C@@H]1OC(=O)[C@@](C(C)=O)(C2SCCCS2)[C@@H]1C tested_on=MCF7 data_value="> 50 µM"
structure_as_smiles=CC(=O)O[C@@H]1OC(=O)[C@](C)(C(C)=O)[C@@H]1C tested_on=MCF7 data_value="6 µM"
structure_as_smiles=CC(=O)O[C@@H]1OC(=O)[C@](Br)(C(C)=O)[C@@H]1C tested_on=MCF7 data_value="17 µM"
structure_as_smiles=CCO[C@@H]1OC(=O)[C@@](C)(C(C)=O)[C@@H]1C tested_on=MCF7 data_value="> 50 µM"
structure_as_smiles=CC(=O)O[C@@H]1OC(=O)[C@@](O)(C(C)=O)[C@@H]1C tested_on=MCF7 data_value="> 50 µM"
structure_as_smiles=CC(=O)O[C@@H]1OC(=O)[C@@](Cc2ccccc2)(C(C)=O)[C@@H]1C tested_on=MCF7 data_value="51 µM"
structure_as_smiles=CC(=O)O[C@@H]1OC(=O)[C@@](OC(C)=O)(C(C)=O)[C@@H]1C tested_on=MCF7 data_value="> 50 µM"
structure_as_smiles=CC(=O)O[C@@H]1OC(=O)[C@@](C)(C(C)=O)[C@@H]1C(C)C tested_on=MCF7 data_value="> 50 µM"
structure_as_smiles=CC(=O)O[C@@H]1OC(=O)[C@](C)(C(=O)CBr)[C@@H]1C tested_on=MCF7 data_value="4 µM"
structure_as_smiles=CC(=O)O[C@@H]1OC(=O)[C@](C)(C(C)=O)[C@@H]1C(C)C tested_on=MCF7 data_value="> 50 µM"
structure_as_smiles=CC(=O)O[C@@H]1OC(=O)[C@@](C)(C(C)=O)[C@@H]1C tested_on=MCF7 data_value="> 10 µM"
structure_as_smiles=CC(=O)O[C@@H]1OC(=O)[C@](OC(C)=O)(C(C)=O)[C@@H]1C tested_on=MCF7 data_value="> 50 µM"
structure_as_smiles=CC(=O)O[C@@H]1OC(=O)[C@](O)(C(C)=O)[C@@H]1C tested_on=MCF7 data_value="> 50 µM"
structure_as_smiles=CC(=O)[C@]1(C)C(=O)O[C@@H](OC(=O)C(C)(C)C)[C@H]1C tested_on=MCF7 data_value="7 µM"
structure_as_smiles=CC(=O)CC[C@]1(C(C)=O)C(=O)O[C@@H](OC(C)=O)[C@H]1C tested_on=MCF7 data_value="6 µM"
structure_as_smiles=CC(=O)[C@@]1(C)C(=O)O[C@@H](OC(=O)c2ccccc2)[C@H]1C tested_on=MCF7 data_value="3 µM"
structure_as_smiles=CC(=O)[C@]1(C)C(=O)O[C@@H](OC(=O)c2ccccc2)[C@H]1C tested_on=MCF7 data_value="8 µM"
structure_as_smiles=CC(=O)[C@@]1(C)C(=O)O[C@@H](OC(=O)C(C)(C)C)[C@H]1C tested_on=MCF7 data_value="3 µM"
structure_as_smiles=CC(=O)O[C@@H]1OC(=O)[C@@H](C(C)=O)[C@@H]1C tested_on=MCF7 data_value="> 50 µM"
